Each entry below carries its reported cytotoxicity at 10 µM.
Assay: Toxicity liver stage against HepG2, at 10uM
Assay type: cell-based
Parameters: test concentration 10 uM, cell line HepG2-A16-CD81EGFP
Conditions: human, HepG2-A16-CD81EGFP cells; read-out: INHIBITION
Respond with the bare value in %.

compound | cytotoxicity at 10 µM [%]
CN(C)C(CNC(=O)c1ccnc(-n2cncn2)c1)c1ccccc1 (stereo not given) | -130
CO[C@@H]1CC[C@H]2[C@H]1OCCN2CCOCc1ccccc1 | -114
Cc1ccc(CN2CCOC(c3cnccn3)C2)s1 (stereo not given) | -2.81
CC(C)C(=O)N1CCc2onc(C(=O)NCCN(C)C)c2C1 | 5.56
Cc1cc(C(=O)NCc2ccc(N3CCCC(C(N)=O)C3)cc2)no1 (stereo not given) | -3.37

The compound listed as CCN(c1ccc(C(=O)N2CCCC(C)C2)cc1)S(=O)(=O)CC (stereo not given) has a reported cytotoxicity at 10 µM of -8.6

The compound listed as CC1CN(C(=O)c2sccc2Br)CCO1 (stereo not given) has a reported cytotoxicity at 10 µM of 5.15

The compound listed as Cn1cc(N2CCC3(CCN(S(=O)(=O)C4CC4)C3)C2=O)cn1 (stereo not given) has a reported cytotoxicity at 10 µM of -2.45

The compound listed as CC(C)CCC(=O)N1CCCC1c1nnc2n1CCCCC2 (stereo not given) has a reported cytotoxicity at 10 µM of -8.88

The compound listed as "Cn1nc(C2CCN(C(=O)Cc3cccc(F)c3)CC2)c2cccnc21" has a reported cytotoxicity at 10 µM of -0.439

The compound listed as "CCn1cc(S(=O)(=O)N(CCc2ccccc2)Cc2ccn(C)n2)cn1" has a reported cytotoxicity at 10 µM of 2.6

The compound listed as c1ncc2c(n1)CN(CC1CCCCO1)CC2 (stereo not given) has a reported cytotoxicity at 10 µM of 2.93

The compound listed as "CC(=O)Nc1ncc(-c2ccc(C)cc2)[nH]1" has a reported cytotoxicity at 10 µM of -4.63

The compound listed as CC(=O)Nc1nc(CN(C)C2CCCN(c3cccnn3)C2)cs1 (stereo not given) has a reported cytotoxicity at 10 µM of -11.1

The compound listed as Cc1ccc(O)c(C(=O)N2CCCC2c2nncn2CC(C)C)c1 (stereo not given) has a reported cytotoxicity at 10 µM of -3.27
